This section presents binders with their documented Kd values.
# TEST_TARGET: T1, Recombinant human CD4 (R&D Systems, Cat. 10327-CD) (human, UniProt P01730 26-390, limits assumed)
# T1 construct: Bought reagent; also called huCD4
# PROCEDURE_DETAILS: BLI Octet, non-clonal supernatant on AMC sensor, 100 nM human CD4, 1:1 local fit;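 note: Single-concentration kinetics per supernatant, with the 1:1 model fitted across both the association and dissociation phases of the sensorgram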
Write the answer as a number in nM, unit excluded.

Observe how each entry below is paired with its result.
75110_03L12A (antibody, V domains shown, Tested as non-clonal AlivaMab Mouse Kappa hybridoma supernatant, captured by anti-mouse IgG Fc sensor) VH: QVQLQQWGAGLLKPSETLSLTCAVYGGSFSGYYWSWIRQPPGKGLEWIGEINHSGSTNYNPSLKSRVTISVDTSENQFSLTLISVTAADTAVYYCVRLINWFDPWGQGTLVTVSS VL: DIQMTQSPSSVSASVGDRVTITCRASQDISNWLAWYQQKPGKAPKLLIFAASSLQSGVPSRFSGSGSGTDFTLTISSLQPDDFATYYCQQANSFPYTFGQGTNLGIK ... 2.8
75110_12H17A (antibody, V domains shown, Tested as non-clonal AlivaMab Mouse Kappa hybridoma supernatant, captured by anti-mouse IgG Fc sensor) VH: EVQLVESGGGLVQPGGSLRLSCAASGFTFSDYWMSWVRQAPGKGLEWVANIKEDGNEKYYVDSVKGRFTISRDNAKNSLFLQMNSLRAEDTAVYYCAREGGQWLALDYWGQGALVTVSS VL: DIQMTQSPSSVSASVGDRVTITCRASQGISSWLAWYQQKPGKAPKFLISGASSLQSGVPSRFTGSGSGTDFTLTISSLQPEDFATYYCQQANSFPWTFGQGTKVEIK ... 9.6

Note to self: Kd recorded for 75110_12H19A (antibody, V domains shown, Tested as non-clonal AlivaMab Mouse Kappa hybridoma supernatant, captured by anti-mouse IgG Fc sensor) VH: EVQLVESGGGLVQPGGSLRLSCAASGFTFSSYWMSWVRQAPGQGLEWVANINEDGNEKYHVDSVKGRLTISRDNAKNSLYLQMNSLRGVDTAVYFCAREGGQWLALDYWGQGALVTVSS VL: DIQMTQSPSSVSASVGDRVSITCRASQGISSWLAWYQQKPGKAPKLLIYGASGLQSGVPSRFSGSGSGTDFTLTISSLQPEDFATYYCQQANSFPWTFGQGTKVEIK was 4.2

Note to self: Kd recorded for 75110_12K21A (antibody, V domains shown, Tested as non-clonal AlivaMab Mouse Kappa hybridoma supernatant, captured by anti-mouse IgG Fc sensor) VH: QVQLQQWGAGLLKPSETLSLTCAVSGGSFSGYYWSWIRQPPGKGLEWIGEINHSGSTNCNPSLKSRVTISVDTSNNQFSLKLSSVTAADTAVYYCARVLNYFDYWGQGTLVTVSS VL: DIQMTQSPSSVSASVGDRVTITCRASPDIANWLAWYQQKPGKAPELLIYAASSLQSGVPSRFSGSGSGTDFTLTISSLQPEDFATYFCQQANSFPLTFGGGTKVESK was 3

Note to self: Kd recorded for 75110_04B08A (antibody, V domains shown, Tested as non-clonal AlivaMab Mouse Kappa hybridoma supernatant, captured by anti-mouse IgG Fc sensor) VH: QVQLVESGGGVVQPGRSLRLSCTASGFNFINYGIHWVRQAPGKGLEWVTIIWYDGSKKYYADSVKGRFAISRDNSKNTLYLQMNSLRAEDTAVYYCAREDDWNDGLAYWGQGTLVTVSS VL: AIQMTQSPSSLSASVGDRVTITCRASQDIRNDLGWYQQKPGKAPNLLIYAASNLQSGVPSRFSGSGSGTDFTLTISSLQPEDFATYYCLQDSNYPRTFGQGTKVEIK was 5.2

Note to self: Kd recorded for 75110_06D16A (antibody, V domains shown, Tested as non-clonal AlivaMab Mouse Kappa hybridoma supernatant, captured by anti-mouse IgG Fc sensor) VH: QVQLQQWGAGLLKPSETLSLTCAVYGGSFSGYYWSWIRQPPGKGLEWIGEINHSGSTNYNPSLKSRVTISVVTSKNQFSLKLSSVTAADTAVYYCARVLNWFDPWGQGTLVTVSS VL: DIQMTQSPSSVSASVGDRVTITCRASQDIADWLAWYQQKPGKAPKLLIYAASSFQSGVPSRFSGSGSGTDFTLTISSLQPEDFATYFCQQANSFPYTFGQGTKLEIK was 2.5

Note to self: Kd recorded for 75110_12C19A (antibody, V domains shown, Tested as non-clonal AlivaMab Mouse Kappa hybridoma supernatant, captured by anti-mouse IgG Fc sensor) VH: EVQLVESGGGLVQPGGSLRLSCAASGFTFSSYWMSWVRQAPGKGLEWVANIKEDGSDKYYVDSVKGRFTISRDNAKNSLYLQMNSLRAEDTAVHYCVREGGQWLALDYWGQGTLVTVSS VL: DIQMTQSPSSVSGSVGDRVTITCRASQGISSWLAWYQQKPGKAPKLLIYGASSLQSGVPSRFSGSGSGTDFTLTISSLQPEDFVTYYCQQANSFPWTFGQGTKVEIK was 0.627

Note to self: Kd recorded for 75110_09G15A (antibody, V domains shown, Tested as non-clonal AlivaMab Mouse Kappa hybridoma supernatant, captured by anti-mouse IgG Fc sensor) VH: EVQLVESGGGLVQPGGSLRLSCAASGFTFSDYWMSWVRQAPGKGLEWVANINQDGSEKYSVDSVKGRFTISRDNAKNSLYLQMNSLRAEDTAIFYCAREGGQWLALDYWGQGTLVTVSS VL: DIQMTQSPSSVSASVGDRVTITCRASQGISSWLAWYQQKPGKAPKLLIYGASSLQSGVPSRFSGSGSGTDFTLTINSLQPEDFTTYYCQQANIFPWTFGQGTKVEIK was 290

Note to self: Kd recorded for 75110_04P08A (antibody, V domains shown, Tested as non-clonal AlivaMab Mouse Kappa hybridoma supernatant, captured by anti-mouse IgG Fc sensor) VH: QVQLQQWGAGLLKPSETLSLTCAVYGGSLSGYYWSWIRQSPGKGLEWIGEINQSGSTNYNPSLKSRVTISVDTSKDQFSLRLTSVTAADTAVYYCTRVLNWFDPWGRGTLVTVSS VL: DIQMTQSPSSVSASVGDRVTLTCRASQDISNWLAWYQQKPGKAPKLLIYAASSLQSGVPSRFSGSGSGTDFTLTISSLQTEDFATYYCQQANSFPYTFGQGTKLEIK was 1.8
